These measurements were taken from the supplement of paper PMC10724198.

Entries annotated with measured protein stability index
System: Saccharomyces cerevisiae
assayProcedure: protein stability index of tFT-peptide fusion (C-terminal peptide) (PSI (0-1 scale)); higher = more stable (slower turnover)
particulars: genetic background: wild type; temperature: 30 C
// response body must contain only the number

Give the measured protein stability index of "LGSAIQGFLILT" . 0.6

Subsequent entry: "CRLRHPFPLSTR" 0.644

Try "YGSSFRLVFSVT" next. 0.583

// query: "SRNRYSSPPVFI" 0.644

Next entry: "PPSPPPPPVVVP" 0.606

###

Tested on: Saccharomyces cerevisiae;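 note: PSI is a weighted mean of sequencing reads over stability bins, variants kept only with over 10 reads, mCherry proximal and sfGFP distal, peptide attached via GGGS linker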
assayProcedure: protein stability index of tFT-peptide fusion (C-terminal peptide) (PSI (0-1 scale)); higher = more stable (slower turnover)
particulars: genetic background: wild type; temperature: 30 C
Kindly return 1 (yes) if reported protein stability index is no lower than 0.6; return 0 (no) if it is lower.

- chain: "PPLSVLPFRFIL"
  classification: "0 (no)"
- chain: "VLSSARKEVIIG"
  classification: "1 (yes)"
- chain: "GGVVEGVSLAQC"
  classification: "1 (yes)"
- chain: "DSESSLPSLPHT"
  classification: "1 (yes)"
- chain: "FFPPFLFSLFRT"
  classification: "0 (no)"

Has "AGSTGGGRGRDW" a recorded protein stability index greater than or equal to 0.6? 1 (yes)

Continue with "KVGKRQGFSVYV" 1 (yes)

Would you kindly repeat that for "RWVGVGPEGGVA" ? 1 (yes)

Now consider "RFGLPLLVVTWL" . 0 (no)
